measured_target: Voltage-gated inwardly rectifying potassium channel KCNH2 (Homo sapiens) (UniProt Q12809)
Sequence (Q12809 whole entry, looked up): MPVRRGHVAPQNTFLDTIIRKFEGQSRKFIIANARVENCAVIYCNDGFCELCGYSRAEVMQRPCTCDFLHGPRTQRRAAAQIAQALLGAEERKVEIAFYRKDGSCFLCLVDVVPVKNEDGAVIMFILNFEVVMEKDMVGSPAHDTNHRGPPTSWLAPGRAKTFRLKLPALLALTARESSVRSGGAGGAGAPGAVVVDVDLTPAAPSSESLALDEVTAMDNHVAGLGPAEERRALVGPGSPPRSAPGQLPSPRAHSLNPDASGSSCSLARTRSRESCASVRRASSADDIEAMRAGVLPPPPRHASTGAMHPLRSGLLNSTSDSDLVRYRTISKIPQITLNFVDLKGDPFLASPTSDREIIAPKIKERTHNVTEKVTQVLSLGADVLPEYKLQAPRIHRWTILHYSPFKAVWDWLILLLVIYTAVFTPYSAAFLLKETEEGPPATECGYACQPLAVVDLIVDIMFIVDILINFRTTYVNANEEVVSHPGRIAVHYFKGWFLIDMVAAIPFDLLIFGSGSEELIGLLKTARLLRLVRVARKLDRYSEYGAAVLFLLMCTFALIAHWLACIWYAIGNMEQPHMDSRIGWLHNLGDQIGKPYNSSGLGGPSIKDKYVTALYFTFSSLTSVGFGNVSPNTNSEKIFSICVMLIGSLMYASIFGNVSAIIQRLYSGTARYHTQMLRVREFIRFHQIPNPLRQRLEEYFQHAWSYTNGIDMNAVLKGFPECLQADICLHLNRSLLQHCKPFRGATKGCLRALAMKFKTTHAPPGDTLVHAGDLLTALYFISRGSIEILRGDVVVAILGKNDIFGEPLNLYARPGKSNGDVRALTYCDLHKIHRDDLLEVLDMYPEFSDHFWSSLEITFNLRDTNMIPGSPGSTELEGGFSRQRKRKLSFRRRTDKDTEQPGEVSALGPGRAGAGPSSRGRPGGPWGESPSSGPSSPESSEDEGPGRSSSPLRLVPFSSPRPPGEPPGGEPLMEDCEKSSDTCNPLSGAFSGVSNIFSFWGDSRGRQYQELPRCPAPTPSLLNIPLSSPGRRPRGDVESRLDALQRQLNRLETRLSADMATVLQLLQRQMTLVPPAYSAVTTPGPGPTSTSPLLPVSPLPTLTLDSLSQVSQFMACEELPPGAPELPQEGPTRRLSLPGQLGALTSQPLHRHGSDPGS
assay_overview: qHTS Assay for Small Molecule Inhibitors of the Human hERG Channel Activity (AID 588834);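 further: lower thallium flux fluorescence means stronger hERG block; nearly all actives have a fitted effect of over 50% in size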
conditions: U2OS BacMam hERG, FluxOR thallium flux fluorescence; series mostly up to 46.1 µM
Records with an inconclusive call do not appear. The source made the active and inactive calls. The call rests on the fitted dose curve; in most records, active means well fitted inhibition curve with a large enough effect; inconclusive means small, poorly fitted or top-dose-only effect; inactive means flat fitted curve, though single readings scatter.
Response enum: active, inactive

{"compound": "CC1(C)C[C@@H]1C(=O)N/C(=C\\CCCCSC[C@H](N)C(=O)O)C(=O)O", "assigned_label": "inactive"}
{"compound": "O=C(O)CCCC[C@@H]1CCSS1", "assigned_label": "inactive"}
{"compound": "O=C(O)COc1ccc(C(=O)c2cccs2)c(Cl)c1Cl", "assigned_label": "inactive"}
{"compound": "CC(C(=O)O)c1ccc(C(=O)c2ccccc2)s1 (configuration not stated)", "assigned_label": "inactive"}
{"compound": "Cn1cc(C2=C(c3ccc(Cl)cc3Cl)C(=O)NC2=O)c2ccccc21", "assigned_label": "active"}
{"compound": "O=C(c1cc(O)c(O)c([N+](=O)[O-])c1)c1ccccc1F", "assigned_label": "inactive"}

Could you please tell me the result logged for CN1CC(=O)N/C1=N/C(=O)Nc1cccc(Cl)c1 in this assay? inactive

Could you please tell me the result logged for CCCCCCCCCCCCCCCC(=O)OC(C)C in this assay? inactive

Could you please tell me the result logged for COc1cccc2c1C(=O)c1c(O)c3c(c(O)c1C2=O)C[C@@](O)(C(=O)CO)C[C@@H]3O[C@H]1C[C@H](N)[C@H](O[C@@H]2CCCCO2)[C@H](C)O1 in this assay? inactive

Could you please tell me the result logged for c1ccc(-c2ccccn2)nc1 in this assay? inactive

Could you please tell me the result logged for NC(N)=NC(=O)c1nc(Cl)c(N2CCCCCC2)nc1N in this assay? active

Could you please tell me the result logged for CCCOC(=O)c1ccc(O)cc1 in this assay? inactive

---

measured_target: Voltage-gated inwardly rectifying potassium channel KCNH2 (Homo sapiens)
assay_overview: qHTS Assay for Small Molecule Inhibitors of the Human hERG Channel Activity (AID 588834);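 further: lower thallium flux fluorescence means stronger hERG block; nearly all actives have a fitted effect of over 50% in size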
conditions: U2OS BacMam hERG, FluxOR thallium flux fluorescence; series mostly up to 46.1 µM
Results filed as inconclusive are left out. Activity calls are given as the source filed them. The call rests on the fitted dose curve; in most records, active means well fitted inhibition curve with a large enough effect; inconclusive means small, poorly fitted or top-dose-only effect; inactive means flat fitted curve, though single readings scatter.
reported_property: outcome

Example results:
{"smiles_structure": "C=C/C(C)=C/[C@@]1(C)SC(=O)C(C)=C1O", "outcome": "inactive"}
{"smiles_structure": "CCN1/C(=C/C(C)=O)Sc2ccc(OC)cc21", "outcome": "inactive"}
{"smiles_structure": "NO", "outcome": "inactive"}
{"smiles_structure": "O=C1NC(O)=NC1(c1ccccc1)c1ccccc1", "outcome": "inactive"}
{"smiles_structure": "CC1(C)S[C@@H]2[C@H](NC(=O)[C@H](NC(=O)N3CCN(S(C)(=O)=O)C3=O)c3ccccc3)C(=O)N2[C@H]1C(=O)O", "outcome": "inactive"}
{"smiles_structure": "CC(=O)[C@]1(O)Cc2c(O)c3c(c(O)c2[C@@H](O[C@H]2C[C@H](N)[C@H](O)[C@H](C)O2)C1)C(=O)c1c(O)cccc1C3=O", "outcome": "inactive"}

outcome value, target or system Voltage-gated inwardly rectifying potassium channel KCNH2 (Homo sapiens), for COC1=C(OC)C(=O)c2ccccc2C1=O : inactive

outcome value, target or system Voltage-gated inwardly rectifying potassium channel KCNH2 (Homo sapiens), for CCCCCC[C@@H](O)C/C=C\CCCCCCCC(=O)O : inactive

outcome value, target or system Voltage-gated inwardly rectifying potassium channel KCNH2 (Homo sapiens), for COc1cc2c(CCNC(C)=O)c[nH]c2cc1Cl : inactive

---

measured_target: D(1A) dopamine receptor (Homo sapiens) (UniProt P21728)
Sequence (P21728 whole entry, looked up): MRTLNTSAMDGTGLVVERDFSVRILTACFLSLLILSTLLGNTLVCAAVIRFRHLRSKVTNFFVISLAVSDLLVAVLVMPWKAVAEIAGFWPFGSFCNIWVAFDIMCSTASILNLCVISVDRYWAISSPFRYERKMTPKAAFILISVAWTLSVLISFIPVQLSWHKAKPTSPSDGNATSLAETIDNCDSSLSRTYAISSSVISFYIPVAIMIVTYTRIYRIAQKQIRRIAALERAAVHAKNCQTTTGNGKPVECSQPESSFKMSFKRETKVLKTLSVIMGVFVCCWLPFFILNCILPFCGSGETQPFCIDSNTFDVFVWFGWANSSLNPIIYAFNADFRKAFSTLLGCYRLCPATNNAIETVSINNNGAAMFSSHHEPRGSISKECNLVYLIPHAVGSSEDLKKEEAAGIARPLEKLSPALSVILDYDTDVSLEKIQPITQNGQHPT
assay_overview: HTS Assay for Allosteric Agonists of the Human D1 Dopamine Receptor: Primary Screen for Agonists (AID 488981); further: potency means the concentration at half of the fitted maximal effect
conditions: Inducible HEK293 T-REx D1 cells, calcium-flux fluorescence, 180 s kinetic; series mostly up to 41.8 µM
Records with an inconclusive call do not appear. Active and inactive are the calls of the source. The call rests on the fitted dose curve; in most records, active means well fitted activation curve with a large enough effect; inconclusive means small, poorly fitted or top-dose-only effect; inactive means flat fitted curve, though single readings scatter.
reported_property: Potency

{"molecule": "CC(C)(C=O)Cc1cc(C(C)(C)C)c(O)c(C(C)(C)C)c1", "reported_property": "Potency", "observed": "inactive"}
{"molecule": "O=[N+]([O-])c1ccc(CSc2ncnc3c2ncn3[C@@H]2O[C@H](CO)[C@@H](O)[C@H]2O)cc1", "reported_property": "Potency", "observed": "inactive"}
{"molecule": "Oc1cc2c(cc1O)CN(C(=S)NCCc1ccc(Cl)cc1)CCC2", "reported_property": "Potency", "observed": "inactive"}
{"molecule": "CCCCCCCCCCCCCCCC(=O)NCC(COP(=O)([O-])OCC[N+](C)(C)C)OCC (stereo unspecified)", "reported_property": "Potency", "observed": "12.6 µM (active)"}
{"molecule": "C[N+]1(C)CCC(OC(=O)C(c2ccccc2)c2ccccc2)CC1", "reported_property": "Potency", "observed": "inactive"}

Record C=CC(C)=C[C@@]1(C)SC(=O)C(C)=C1O , field Potency: inactive

---

measured_target: Atrial natriuretic peptide receptor 1 (Homo sapiens)
assay_overview: Natriuretic polypeptide receptor (hNpr1) antagonism - Pilot screen (AID 1347049);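 further: HEK293 cells with hNpr1 and GloSensor cGMP luciferase stimulated by 0.1 nM hNppA; agonist-evoked cGMP luminescence read 20 min after hNppA addition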
conditions: hNpr1 cells, antagonist mode cGMP read-out; series mostly up to 57.5 µM
Inconclusive results are not listed. The source made the active and inactive calls. The call rests on the fitted dose curve.
Response enum: active, inactive

Completed entries (count: 6):
{"compound": "CC1(C)CCC=[N+]1[O-]", "measured_target": "Atrial natriuretic peptide receptor 1 (Homo sapiens)", "assigned_label": "inactive"}
{"compound": "CO/N=C(\\C(=O)N[C@@H]1C(=O)N2C(C(=O)O)=C(COC(C)=O)CS[C@H]12)c1csc(N)n1", "measured_target": "Atrial natriuretic peptide receptor 1 (Homo sapiens)", "assigned_label": "inactive"}
{"compound": "O=C(O)c1cc([N+](=O)[O-])ccc1NCCCc1ccccc1", "measured_target": "Atrial natriuretic peptide receptor 1 (Homo sapiens)", "assigned_label": "inactive"}
{"compound": "CCCn1c(=O)c2[nH]c(-c3ccc(OCC(=O)NCCN)cc3)nc2n(CCC)c1=O", "measured_target": "Atrial natriuretic peptide receptor 1 (Homo sapiens)", "assigned_label": "inactive"}
{"compound": "NC(N)=NC(=O)c1nc(Cl)c(N2CCCCCC2)nc1N", "measured_target": "Atrial natriuretic peptide receptor 1 (Homo sapiens)", "assigned_label": "inactive"}
{"compound": "CO/S(=N\\S(=O)(=O)c1ccc(Cl)cc1)c1ccc([N+](=O)[O-])cc1 (configuration not stated)", "measured_target": "Atrial natriuretic peptide receptor 1 (Homo sapiens)", "assigned_label": "inactive"}

Could you please tell me the result logged for CN(C)CCCO[C@@H]1[C@H]2OC(C)(C)O[C@H]2O[C@@H]1[C@H](O)CO in this assay? inactive

Could you please tell me the result logged for CC(C)(C)c1ccc(S(=O)(=O)/C=C/C#N)cc1 in this assay? active

Could you please tell me the result logged for O=C(O)CNC(=O)C(CS)Cc1ccccc1 (configuration not stated) in this assay? inactive

Could you please tell me the result logged for CC1OC1P(=O)(O)O (configuration not stated) in this assay? inactive

Could you please tell me the result logged for CCc1c(C(=O)NCCc2ccc(N3CCCCC3)cc2)[nH]c2ccc(Cl)cc12 in this assay? inactive

---

assay_overview: qHTS Assay for Lipid Storage Modulators (AID 1519)
conditions: Drosophila S3 cells, BODIPY lipid droplet/cell ratio, laser cytometry; measured here: cell count channel max response; cells loaded with oleic acid
Inconclusive results are not listed.
Assign class by max response: not lower than -10% means true; lower than -10% means false.

{"compound": "Nc1cc(-c2ccncc2)c[nH]c1=O", "assigned_label": "true"}
{"compound": "O=C(O)CCCC[C@@H]1CCSS1", "assigned_label": "false"}
{"compound": "O=c1[nH]c2ccccc2n1CCCN1CCN(C(c2ccccc2)c2ccccc2)CC1", "assigned_label": "true"}
{"compound": "NCCCS(=O)(=O)O", "assigned_label": "true"}
{"compound": "O=c1cc(-c2ccccc2)oc2c(O)c(O)ccc12", "assigned_label": "false"}
{"compound": "C=CC(N)CCC(=O)O (centres undefined)", "assigned_label": "true"}

Identify whether the reported max response of the following compound is -10% or greater: O=C1CN(/N=C/c2ccc([N+](=O)[O-])o2)C(=O)N1 true

Identify whether the reported max response of the following compound is -10% or greater: S=c1[nH]c2ccccc2s1 true

Identify whether the reported max response of the following compound is -10% or greater: O=c1[nH]c2cc(Cl)c(Cl)cc2[nH]c1=O false

Identify whether the reported max response of the following compound is -10% or greater: Oc1ccc(C2CNCc3sccc32)cc1O (centres undefined) true

Identify whether the reported max response of the following compound is -10% or greater: N=C(N)N true

Identify whether the reported max response of the following compound is -10% or greater: NCCCCCCCCCCN true

Identify whether the reported max response of the following compound is -10% or greater: Oc1ccccc1O false

Identify whether the reported max response of the following compound is -10% or greater: S=C(S)OC1CC2CC1C1CCCC21 (centres undefined) false

Identify whether the reported max response of the following compound is -10% or greater: CC(C)NC[C@H](O)COc1cccc2[nH]ccc12 true
